Item-by-item account of z-score
- ASSAY_OVERVIEW: inhibitors of hydroxyurea-induced Chk1 phosphorylation, primary screen, imaging, HeLa, phospho-Chk1 nuclear intensity (AID 1187); further: test concentration not given here
- ASSAY_CONTEXT: hydroxyurea-induced phospho-Chk1 immunofluorescence imaging, higher = more signal
# output: bare number, no unit

Value lookup for z-score; key = "CC[C@@H]1C=C(C(=O)O)[C@H](c2cccc(Cl)c2)N1S(=O)(=O)c1ccc(C)cc1" -0.141

Moving on to "CCOC(=O)C[C@H]1[C@H](OC(=O)Cc2ccc3c(c2)OCO3)[C@@H](NC(=O)CC(C)C)c2cc(OCCCO)ccc2N1C(=O)c1ccc2ccccc2n1" 0.252

Moving on to CC(C)c1ccc(NN2C(C(O)C3CCCCC3)C=CC3C(=O)N(c4ccccc4)C(=O)C32)cc1 (configuration not stated) -0.566

====

- TARGET: Fibroblast growth factor 2 (Homo sapiens) (UniProt P09038)
- Sequence (P09038 whole entry, looked up): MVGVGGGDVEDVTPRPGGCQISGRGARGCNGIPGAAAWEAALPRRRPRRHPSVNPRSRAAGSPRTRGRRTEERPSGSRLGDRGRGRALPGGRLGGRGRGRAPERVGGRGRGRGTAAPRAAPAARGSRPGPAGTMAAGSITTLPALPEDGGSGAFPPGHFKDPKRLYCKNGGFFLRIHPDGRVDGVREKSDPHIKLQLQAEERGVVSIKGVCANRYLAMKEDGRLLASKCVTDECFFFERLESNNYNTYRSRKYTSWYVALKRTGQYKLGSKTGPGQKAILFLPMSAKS
- ASSAY_OVERVIEW: FGF2 binders on small-molecule microarrays, primary screen, biochemical, small-molecule microarray, 635/667 nm fluorescence (AID 1133)
- ASSAY_CONTEXT: small-molecule microarray binding, FGF2, fluorescence 635/667; higher = more signal
Item-by-item account of composite z-score
# output: bare number, no unit

Use these answered entries as a reference point.
MOL | composite z-score
C=CCOC(=O)[C@H]1[C@@H]2C(=O)O[C@@H](c3ccccc3)[C@@H](c3ccccc3)N2[C@@H](c2ccc(OCCOC(=O)[C@H]3C[C@H]4C(=O)NCC(=O)N4[C@H]3c3ccc(O)cc3)cc2)[C@]12C(=O)Nc1ccccc12 | 1.46
[N-]=[N+]=NCc1ccccc1C[C@]1(C(=O)N2CCCCC2)COC(c2ccc(OCCCO)cc2)=N1 | 0.765

# input for lookup
Value lookup for composite z-score; key = "CC(=O)NCCCC[C@@H]1NC(=O)[C@H]2C[C@@H](C(=O)O)[C@@H](c3cccc(OCCO)c3)N2C1=O" 1.12

====

- TARGET: NADPH oxidase 2 (Homo sapiens)
- ASSAY_OVERVIEW: NOX2-dependent H2O2 signal modulators, primary screen, NOX inhibitor project, cell-based, HEK293-NOX2, PMA-stimulated, Amplex Red fluorescence (AID 1159); further: test concentration not given here
- ASSAY_CONTEXT: 45 min, higher = more signal, called active from +8 up or from −8 down
// thresholds for z-score classes: low (below 0.2), mid (0.2 to below 1), high (1 or more)

COMPOUND | DISCRETE_LABEL
COc1ccc(C#Cc2ccc3c(c2)[C@]2(C(=O)N3)[C@H](c3ccccc3OCCO)N3[C@H](c4ccccc4)[C@H](c4ccccc4)OC(=O)[C@H]3[C@@H]2C(=O)NC[C@H](O)c2ccccc2)cc1 | high
CCOC(=O)C=C1C[C@@H](c2cccc([N+](=O)[O-])c2)O[C@@H](c2cccc([N+](=O)[O-])c2)O1 | mid
CC(C)(C)OC(=O)CC[C@]1(C(N)=O)N=C(c2ccc(OCCCO)cc2)O[C@H]1c1ccccc1N=[N+]=[N-] | low
COc1ccc([Si](C)(C)[C@H]2[C@H](CC(=O)N3CCC[C@H]3CO)O[C@@]3(C(=O)N(C)c4c(Br)cc(C)cc43)[C@@H]2C)cc1 | mid
C=C(COC)/C(=C/C[C@@H](OC(C)=O)c1cccc(OCCO)c1)c1cnc2ccccc2c1 | low
CCCCC(=C=CC[C@@H](O)c1ccccc1OCCO)C[C@@H](O)c1ccccn1 | high
C=CCNC(=O)[C@H]1[C@@H]2C(=O)O[C@@H](c3ccccc3)[C@@H](c3ccccc3)N2[C@@H](c2ccc(OCCO)cc2)[C@]12C(=O)N(C(=O)OCCOC)c1ccc(C#CCNC(N)=O)cc12 | high
Cc1ccc(S(=O)(=O)N2[C@@H](c3ccccc3)C(C(=O)O)=C[C@H]2C(C)(C)C)cc1 | mid

Please report the category associated with "C=CCOC(=O)[C@@H]1[C@H]2C(=O)O[C@H](c3ccccc3)[C@H](c3ccccc3)N2[C@H](c2ccc(OCCOC(=O)[C@@H]3C[C@@H]4C(=O)N[C@@H](CC(C)C)C(=O)N4[C@@H]3c3ccc(O)cc3)cc2)[C@@]12C(=O)Nc1ccc(I)cc12" , nothing else. mid

Where these numbers come from: PubChem BioAssay
